What inhibition was measured for each of the following?
Target: Serine/threonine-protein phosphatase PP1-alpha catalytic subunit (Homo sapiens)
Experiment: inhibitors of PP1 histone dephosphorylation – biochemical, 33P-phosphohistone, radiolabel, single concentration, round 5, selectivity assay for PP5 inhibitor project, late-stage follow-up (AID 624437)
Conditions: purified PP1alpha, 33P-phosphohistone dephosphorylation, scintillation; at 50 µM; active compounds read high
# number only, unit % dropped from output

Bench note: what inhibition did COc1ccc(-c2n[nH]nc2C(=O)O)cc1 show?
1.04

What value of inhibition has been reported for the following compound? O=C(O)c1n[nH]nc1-c1ccc(F)cc1
10.4

Look up inhibition: COc1ccccc1-c1n[nH]nc1C(=O)O
23.3

Please give the measured inhibition for this compound: O=C(O)c1n[nH]nc1-c1ccccc1O
10.9

For the compound O=C(O)c1n[nH]nc1-c1ccccc1F , what inhibition is on record?
20.5

Using the record for O=C(O)c1n[nH]nc1-c1cccc(F)c1 , report its inhibition.
10.3

Any idea what inhibition was measured for COc1cccc(-c2n[nH]nc2C(=O)O)c1 ?
11.1

FYI, the data here is from PubChem BioAssay AID624437.
